# System: macrophage cell line J774
# assayComment: Alamar Blue macrophage J774 viability assay
# Type: cell-based
# testParameters: Mus musculus; J774 cells, 72 hours with compound, n=5; Biological Study 1 table
assayEndpoint: IC50

Q. Determine its reported IC50: O=[N+]([O-])c1ccccc1-c1ccc(S(=O)(=O)Nc2cccc(CO)c2)cc1
A. > 4 µM

Q. Quickly give me recorded IC50 for O=S(=O)(Nc1ccc(CO)c(CO)c1)c1ccc(-c2ccc(Cl)cc2Cl)cc1
A. 1.2 µM
